Kindly supply the reported melting point values for the records listed here.

# input compound: COC(=O)CN(CCc1ccc(OC)c(OC)c1)C(=O)/C=C/c1cccnc1.Cl ; wanted: its melting point
168 to 170 °C

Entry to check: COc1ccc(CCN(C)C(=O)/C(C#N)=C/c2cccnc2)cc1OC
115 to 120 °C

Now consider CCOC(=O)COc1ccc(CNC(=O)/C=C/c2cccnc2)cc1OC and answer again.
105 to 107 °C

Try this compound next: COc1ccc(CCNC(=S)/C=C/c2cccnc2)cc1OC.Cl
182 to 187 °C

Try this compound too: COCCOCOc1c(OC)cc(CCN(C)C(=O)/C=C/c2cccnc2)cc1OC
152 to 155 °C

----------
Test system: Phosphodiesterase IV
assay.procedure: Inhibitory action on phosphodiesterase IV ([3H]cAMP hydrolysis, liquid scintillation)
Type: biochemical
run.conditions: test substance 10 μM; enzyme isolated from U-937 cell; cAMP 1 μM substrate; 30 min at 30° C.; duplicate
Phosphodiesterase IV inhibitory activity (10 μM) of 50% or higher: Criterion met. Under 50%: Criterion not met.

hey, is Phosphodiesterase IV inhibitory activity (10 μM) for this one >= 50%? COc1ccc(C(=O)CN(C)C(=O)/C=C/c2cccnc2)cc1OC [Compound 155]
Criterion met

Item: COc1ccc(CCN(C)C(=O)/C=C/c2cccnc2)cc1OC.Cl [Compound 140]
Criterion met

Next entry: COc1ccc(CCN(C)C(=O)/C=C/c2ccccn2)cc1OC.Cl [Compound 153]
Criterion met

Next compound up: COc1ccc(CCNC(=S)/C=C/c2cccnc2)cc1OC.Cl [Compound 136]
Criterion not met

Do the same for COc1ccc(CCN(C)C(=O)/C(C#N)=C/c2cccnc2)cc1OC [Compound 2] please
Criterion met

Also COc1ccc(CCN(C)C(=O)/C=C/c2cccnc2)cc1OC [Compound 146] , if possible.
Criterion not met

What would you report for COc1ccc(CCN(C)C(=O)/C=C/c2cccnc2)cc1OC [Compound 144] ?
Criterion not met

Same question, COc1ccc(CCN(C)C(=S)/C=C/c2cccnc2)cc1OC.Cl [Compound 135] this time
Criterion met
